Values compiled from PubChem BioAssay (NCI).

Please respond with reported growth inhibition for every item in the list.
# MEASUREMENT NOTES: NCI Yeast Anticancer Drug Screen. Data for the mec2-1 strain (AID 157)
# SETUP CONDITIONS: S. cerevisiae mec2-1 strain, at 50.0 µM, stronger effect = higher value
About 79,000 compounds went through this panel and 15% of them were active in at least one assay; those are over-represented in the sample as a whole.
Answers are plain numbers, in %.

Example entries begin here.
CC1(C)C(C#N)C1C1=C(N2CCOCC2)[C@]2(C)C(OC(=O)c3ccccc3)CC[C@@H]2C1 (some centres undefined); -17.2
CCC(C)c1cnc(CC(C)C)c(=O)[nH]1 (centres undefined); -44.2
COc1cc(C2C3=C(N=C4SC(C(C)=O)=C(C)N42)c2ccccc2CC3)cc(OC)c1OC (centres undefined); -48.6
Cc1oc2cc(O)ccc2c(=O)c1-c1ccccc1Br; 24.9
Cc1cc(N)ccc1N=Nc1ccc(Sc2ccc(N=Nc3c(S(=O)(=O)O)cc4cc(S(=O)(=O)O)c(N=Nc5ccc([N+](=O)[O-])cc5)c(N)c4c3O)cc2)cc1; -27.9

Record growth inhibition per entry; entries follow.
1. CC(=O)CCC1(C)CCCC(C)(C)CC1=O (centres undefined)
2. C[C@@H](CO)OCOCc1ccccc1
3. CC(=O)O/C(C)=C/C(C)C
4. CCCNC(=O)CCC(=O)NS(=O)(=O)c1ccc(Cl)cc1
5. CC(=O)C(/C=N\N=C(/C)c1cn[nH]c1C)=C(/C)O
6. c1cc2c3c(cccc3c1)N1C(=N2)Sc2nc3ccccc3nc21

OUTPUT:
1: 5.15; 2: -1.25; 3: -5.35; 4: -3.05; 5: -21.6; 6: 13.5

Record growth inhibition per entry; entries follow.
1. CCCCCCCCCCCCCC1CCC(CC)N1 (centres undefined)
2. COc1ccc2c(c1)OC1c3ccccc3OCC21 (centres undefined)
3. O=C1C(N=Nc2ccc(S(=O)(=O)Nc3ccccn3)cc2)C(=O)N(c2ccccc2)C(=S)N1c1ccccc1

OUTPUT:
1: 93.7; 2: 11.6; 3: 6.1

Record growth inhibition per entry; entries follow.
1. c1ccc(-c2[nH]nc3nc4c(nc23)CCCC4)cc1
2. C=CC(O)C(O)C=C (centres undefined)

OUTPUT:
1. -5.3
2. -9

Record growth inhibition per entry; entries follow.
1. CC1(C2(C)CC2(Br)Br)CC1(Br)Br (centres undefined)
2. COC(=O)/N=c1\cc(N2CC=CCC2)nc(N)n1O
3. Cc1ccc(S(=O)(=O)N2CCN(C=S)CC2)cc1
4. O=C1C2ON3c4ccccc4C(=O)C3(c3ccccc3)C2C(=O)N1c1ccccc1 (centres undefined)
5. COc1ccc2c(c1)CCCN2C(=N)c1ccc([N+](=O)[O-])cc1

OUTPUT:
-0.65
-10.7
-30.8
-31.3
-4.1
